# ASSAY: Viscosity of liquid oil (E) on a Brookfield viscometer
# Assay type: physicochemical
# ASSAY_CONDITIONS: at 25 degrees C., No. 2 spindle, 12 rpm
RESULT_TYPE: Viscosity (mPa·s)
Reply with just the number (in mPa·s).

                                   compound  unit_of_measurement  measured_number
0  CC(C)CCCCCCCCCCOC(=O)CCCCCC(C)C [isotridecyl isononanoate]                mPa·s               12
1  CCCCCCCCCC(=O)OCC(C)(C)COC(=O)CCCCCCCCC [neopentylglycol dicaprate]                mPa·s               19

q: For CC(C)CCCC(C)CCCC(C)CCCCC(C)CCCC(C)CCCC(C)C (stereo not drawn) , what is its reported Viscosity?
a: 32
